target: T1, monkey SEMA4D, full length, on CHO-K1 cells (CHO-K1 cSEMA4D) (monkey); test: FACS, CHO-K1 cSEMA4D cells; Ab 0.0213 nM
T1 construct: whole, on cells; also called monkey SEMA4D recombinant cells
MEASUREMENT LABEL: MFI

Recorded MFI, per entry:
BINDER	MFI
37F11F9 (antibody, V domains shown, Mouse monoclonal antibody purified from hybridoma supernatant on protein A) VH: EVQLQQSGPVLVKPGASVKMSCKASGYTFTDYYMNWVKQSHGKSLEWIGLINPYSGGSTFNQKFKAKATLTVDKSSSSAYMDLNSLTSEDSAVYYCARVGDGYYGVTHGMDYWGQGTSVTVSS VL: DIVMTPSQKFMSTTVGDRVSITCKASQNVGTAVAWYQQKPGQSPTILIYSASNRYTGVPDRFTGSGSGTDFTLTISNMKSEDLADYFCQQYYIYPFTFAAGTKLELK	103
31C11G2 (antibody, V domains shown, Mouse monoclonal antibody purified from hybridoma supernatant on protein A) VH: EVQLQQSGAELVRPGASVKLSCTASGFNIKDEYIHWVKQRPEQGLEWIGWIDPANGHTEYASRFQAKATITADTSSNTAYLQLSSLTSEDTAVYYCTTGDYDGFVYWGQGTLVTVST VL: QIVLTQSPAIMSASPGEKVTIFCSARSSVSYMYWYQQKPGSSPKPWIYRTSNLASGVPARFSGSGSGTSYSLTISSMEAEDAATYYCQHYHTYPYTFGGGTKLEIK	422

Then this binder:
## Task Given the entry 32C8F10 (antibody, V domains shown, Mouse monoclonal antibody purified from hybridoma supernatant on protein A) VH: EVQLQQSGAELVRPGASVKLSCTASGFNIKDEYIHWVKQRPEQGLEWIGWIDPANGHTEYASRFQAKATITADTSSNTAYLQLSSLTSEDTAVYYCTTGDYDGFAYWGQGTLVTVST VL: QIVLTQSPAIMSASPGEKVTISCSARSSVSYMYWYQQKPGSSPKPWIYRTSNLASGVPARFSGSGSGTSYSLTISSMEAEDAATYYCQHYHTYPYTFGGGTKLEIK , report its measured MFI.
## Result 291
